tested on: Wolbachia pipientis; assay: Anti-Wolbachia Cell-Based Screen; type: functional; parameters: scale not given: in the data most compounds retested in dose-response had high values; details: 5 µM
Out of some 48,000 compounds screened, about 13,000 (27%) showed an effect of 50% or more. The list shows a part of the results.
Each entry below carries its reported Percent Effect.
// note: answer is a bare numeric in %

>>> val("Cc1ccnc(C2(C)CCCN2S(=O)(=O)c2c(C)noc2C)n1 (configuration not stated)")
125.2

Qu. Give Percent Effect for `O=C(CCOc1ccccc1Cl)N1CCN(c2cnccn2)CC1`
Ans. 81.46

Qu. Give Percent Effect for `CC(=O)N1CCC2(CC1)CN(C)C(=O)C[C@H]2C(F)(F)F.Cl`
Ans. -12.08

Qu. Give Percent Effect for `CCc1nnc(CN2CCCN(C(=O)c3ccccn3)CC2)o1`
Ans. -2.51

Qu. Give Percent Effect for `Cn1ncc2c(N3CCN(CCO)CC3)nc(C3CCCC3)nc21`
Ans. 1.132

Qu. Give Percent Effect for `O=C(CCOc1ccc(Br)cc1)N1CCN(c2cnccn2)CC1`
Ans. 108.9

Qu. Give Percent Effect for `COCc1cc(CNC(=O)c2cccc3c2OCC3)n[nH]1`
Ans. -6.489

Qu. Give Percent Effect for `O=C(CCSc1ccc(F)cc1)N1CCN(c2cnccn2)CC1`
Ans. -10.65
